Compiled literature IC50, tested on Tyrosine-protein phosphatase non-receptor type 1 (Homo sapiens, UniProt P18031).
Sequence (P18031 whole entry): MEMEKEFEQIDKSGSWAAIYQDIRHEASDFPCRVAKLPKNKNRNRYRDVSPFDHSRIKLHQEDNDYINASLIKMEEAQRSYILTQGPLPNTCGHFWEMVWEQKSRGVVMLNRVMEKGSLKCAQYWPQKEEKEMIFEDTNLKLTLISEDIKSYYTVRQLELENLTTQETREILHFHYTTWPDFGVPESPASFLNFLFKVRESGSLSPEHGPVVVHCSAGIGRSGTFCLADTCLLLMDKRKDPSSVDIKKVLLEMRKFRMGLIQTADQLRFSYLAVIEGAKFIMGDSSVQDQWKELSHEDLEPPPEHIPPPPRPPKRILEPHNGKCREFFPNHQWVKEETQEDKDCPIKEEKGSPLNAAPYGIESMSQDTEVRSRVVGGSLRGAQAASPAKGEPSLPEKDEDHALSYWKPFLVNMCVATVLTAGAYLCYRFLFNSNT
Binning rule for recorded IC50: lower segment (below 1 µM), middle segment (1 µM to below 6 µM), upper segment (6 µM or more)

* O=C(O[C@H]1[C@H](Oc2c(O)cc(O)cc2/C=C/c2ccc(O)cc2)O[C@H](CO)[C@@H](O)[C@@H]1O)c1cc(O)c(O)c(O)c1 | upper segment

Query: Would you mind sorting `CC1(C)Oc2cc3oc(-c4cc(O)cc(O)c4)cc3cc2C[C@H]1O` into the appropriate category?
Result: upper segment

Query: Entry `C/C(=C/CCC(C)(C)O)[C@H]1CC[C@]2(C)[C@@H]1[C@H](O)C[C@@H]1[C@@]3(C)CC[C@H](O)C(C)(C)[C@@H]3CC[C@]12C` belongs to which category?
Result: upper segment

Query: Class? Entry: `CC(C)CC(=O)Nc1ccc(-c2ccc(NC(=O)CC(C)C)cc2)cc1`
Result: upper segment

Query: Returns: class label. Input: `Cc1ccc(S(=O)(=O)Oc2cc(OCc3cc(C(F)(F)F)cc(C(F)(F)F)c3)c(/C=C3\SC(=O)NC3=O)cc2Br)cc1`
Result: middle segment

Query: Lab note: sort Cc1ccc(/C=C/C(=O)NC(Cc2ccc3cc(OCc4ccccc4F)ccc3c2)C(=O)O)cc1 (racemic) into the matching IC50 band.
Result: upper segment

Query: Which of the defined bands does the recorded IC50 of `C/C=C/C=C/C(=O)N1Cc2cc(OCCc3nc(/C=C/C(C)(C)CC)oc3C)ccc2C[C@H]1C(=O)O.CC(C)(C)N` sit within?
Result: middle segment

Query: # classify by IC50 band: COC(=O)c1ccc2[nH]c(C(Cc3ccc(C4CC(=O)NS4(=O)=O)cc3)NS(=O)(=O)c3ccc(-c4ccccc4)cc3)nc2c1 (stereo unspecified)
Result: lower segment

Query: For O=C1CC(c2ccc(CC(NS(=O)(=O)c3cccc(F)c3)c3ncc(CCc4ccccc4)[nH]3)cc2)S(=O)(=O)N1 (stereo unspecified) , which IC50 bin applies?
Result: lower segment

Query: Quick check: band for `COc1ccc(CC(=O)N[C@@H](Cc2ccccc2)C(=O)N[C@@H](Cc2ccc(C3=CC(=O)NS3(=O)=O)cc2)C(N)=O)cc1`
Result: middle segment

Query: GET /class?item= `Cc1noc([C@@H]2Cc3ccc(NS(=O)(=O)O)cc3CN2C(=O)OC(C)(C)C)n1`
Result: upper segment

----------
For reference, the following IC50 results for Tyrosine-protein phosphatase non-receptor type 1 (Homo sapiens) were taken from various sources.
IC50 strictly under 0.2 µM means T; at 0.2 µM or over means F.

Worked set:
- O=C(O)c1cc(/C=C/c2ccccc2)ccc1O: F
- COc1ccc(CC(NC(=O)CCCC[C@]23CCC(C)(C)C[C@H]2C2=CC[C@@H]4[C@@]5(C)CC[C@H](O)C(C)(C)[C@@H]5CC[C@@]4(C)[C@]2(C)CC3)C(=O)O)cc1OC (stereo partly specified): F
- COc1cc(/C=C2\S/C(=N\c3ccccc3)N(CC(=O)O)C2=O)ccc1OCc1ccccc1: F
- O=C1CC(c2ccc(CC(NS(=O)(=O)c3cccc(F)c3)c3nc4ccccc4[nH]3)cc2)S(=O)(=O)N1 (stereo unspecified): T

Query: Regarding `C=C1CCC[C@H]2[C@](C)(Cc3cc(O)ccc3OC(C)=O)[C@@H](C)CC[C@]12C` , kindly confirm whether its IC50 is beneath 0.2 µM.
Result: F

Query: Given `O=C(O)c1cccc2c1oc1ccc(-c3csc(-c4cc(Br)c(C(=O)[C@H](Cc5ccccc5)C(=O)O)c(Br)c4)n3)cc12` , is recorded IC50 strictly lower than 0.2 µM?
Result: T

Query: # check: IC50 < 0.2 µM for `O=C1Nc2ccc(S(=O)(=O)NCc3ccc(F)cc3)cc2/C1=N/Nc1cccc(C(=O)O)c1`
Result: F

Query: # TODO verify IC50 < 0.2 µM strictly for this molecule: `C/C(=C/C(C)=C/c1csc([C@H](Cc2ccc(OCc3ccccc3)cc2)NC(=O)CCCc2c[nH]c3ccccc23)n1)C(=O)OCC(=O)O`
Result: F

Query: Below 0.2 µM on IC50? Entry Cc1cc(CC(NS(=O)(=O)c2cccc(F)c2)C2=NC[C@@H](CCCOc3cccc(S(C)(=O)=O)c3)N2)ccc1C1CC(=O)NS1(=O)=O (stereo partly specified)
Result: T

Query: Please let me know if `CC1(C)CC[C@]2(CCCCC(=O)N[C@@H](Cc3c[nH]c4ccccc34)C(=O)O)CC[C@]3(C)C(=CC[C@@H]4[C@@]5(C)CC[C@H](O)C(C)(C)[C@@H]5CC[C@]43C)[C@@H]2C1` shows IC50 below 0.2 µM.
Result: F

Query: Given `NCC(=O)Nc1cccc(C#Cc2ccc(C(=O)O)c(SCc3ccc(Cl)c(Cl)c3)c2)c1` , is recorded IC50 strictly lower than 0.2 µM?
Result: F

Query: Input `NS(=O)(=O)C(F)(F)c1cc2nc(CN(Cc3ccc(-c4csnn4)cc3)S(=O)(=O)c3ccc(OCC(=O)O)cc3)ccc2cc1Br` ; condition: IC50 strictly below 0.2 µM. Does it hold?
Result: T

Query: Does `C=C(C)[C@@H]1C=C2[C@@H](C)CC[C@@H]([C@@H](CC(C)C)c3c(O)c(C=O)c(O)c(C=O)c3O)[C@]2(C)CC1` have IC50 strictly under 0.2 µM?
Result: F

Query: Strictly below 0.2 µM: is that where IC50 of CCOP(=O)(O)C(N[C@@H](Cc1ccccc1)C(=O)O)c1ccccc1O (stereo partly specified) sits?
Result: F

Query: In the record for O=C1CC(c2ccc(CC(NS(=O)(=O)c3cc(Cl)ccc3Cl)c3nc4ccccc4[nH]3)cc2)S(=O)(=O)N1 (stereo unspecified) , is IC50 less than 0.2 µM?
Result: T

Query: Given `CC(C)C[C@@H](c1c(O)c(C=O)c(O)c(C=O)c1O)[C@@]1(C)CC=C2[C@H](C)CC[C@@H]3[C@H]([C@@H]21)C3(C)C` , is recorded IC50 strictly lower than 0.2 µM?
Result: F
